Test system: ACHN renal
protocol_summary: NCI-60 one-dose screen, 48 h (100 = growth as untreated, 0 = no growth, -100 = all killed)
test_settings: 10 µM unless noted
Compounds without any hit were thinned out: in the full panel of roughly 83,000, 20% have a hit.
What growth was measured for each of the following?
Return type: number; implicit unit %.

Entry `COC(=O)[C@@]1(C)CC[C@]2(C)CC[C@]3(C)C(=CC(=O)[C@@H]4[C@@]5(C)Cc6c(n(CC#CCN7CCN(C)CC7)c7ccccc67)C(C)(C)[C@@H]5CC[C@]43C)[C@@H]2C1` — recorded growth = 89.4

Entry `O=C(Nc1ccc(-c2nc(-c3cccc(O)c3)c(-c3ccnc(Br)c3)[nH]2)cc1)c1ccccc1` — recorded growth = 16.5

Entry `COc1cnc2c(c1)C(=O)c1c-2n(CCCNCC2CC2)c(=O)c2cc(F)ccc12` — recorded growth = -62

Entry `CCCCCCNC(=O)Oc1ccc(/C(=C(/C)c2ccc(OC)cc2)c2ccc(OCCN3CCCC3)cc2)cc1` — recorded growth = 84.3
